target-system: OR5AN1 (Homo sapiens, UniProt Q8NGI8, E89G)
Construct: expressed in transfected cells; host or cells: HEK293T-RTP1A1/RTP2
Sequence (Q8NGI8 whole entry E89G): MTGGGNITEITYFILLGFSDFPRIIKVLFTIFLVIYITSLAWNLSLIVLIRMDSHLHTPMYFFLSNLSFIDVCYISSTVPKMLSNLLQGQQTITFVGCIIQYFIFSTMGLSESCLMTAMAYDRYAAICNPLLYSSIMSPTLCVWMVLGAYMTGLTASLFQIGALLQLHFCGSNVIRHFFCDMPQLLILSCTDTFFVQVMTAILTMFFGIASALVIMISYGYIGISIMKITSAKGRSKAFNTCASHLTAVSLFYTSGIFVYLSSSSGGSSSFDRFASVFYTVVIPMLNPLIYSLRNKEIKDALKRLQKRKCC
method-description: Luciferase reporter concentration-response analysis on OR5AN1
Format: cell-based
run-conditions: concentration-response analysis, luciferase reporter; values given as negative (log) numbers; Non Active = no activation after testing; read-out: calculated EC50, OR5AN1 (converted)
Method: HEK293T-RTP1A1/RTP2 cells were maintained in minimal essential medium (EMEM, Lonza) containing 10% fetal bovine serum (M10). […] For the initial deorphanisation screening and dose-response analysis, a Luciferase-based gene reporter assay (Promega, Leiden, The Nederlands) was used. […] Sixteen hours after transfection, the culture medium was replaced by serum-free EMEM containing the tested compounds at a determined concentration. […] Luminescene emission was recorded. […]
readout-type: EC50 (µM)
Numbers only, in µM.

Worked cases, answers included:
| compound | EC50 (µM) |
| --- | --- |
| O=C1CCC/C=C\CCCCCCCCCC1 | 49 |
| CC(=O)c1c(C)c([N+](=O)[O-])c(C(C)(C)C)c([N+](=O)[O-])c1C | 0.288 |
| CC1C/C=C\CCCCCCCCC(=O)OCC1 (stereo not drawn) [nirvanolide] | 417 |
| COc1c(C(C)(C)C)cc([N+](=O)[O-])c(C)c1[N+](=O)[O-] | 692 |
| O=C1CCCCCC/C=C\CCCCCCC1 | 2.24 |

Briefly, EC50 measured for O=C1CCCCCCCCCCCCCCO1 [Thibetolide = Exaltolide] : 87.1
